Origin of measurements: patent US11225484B2

Target: Human M4 (Homo sapiens, UniProt P08173)
Sequence (P08173 1-479): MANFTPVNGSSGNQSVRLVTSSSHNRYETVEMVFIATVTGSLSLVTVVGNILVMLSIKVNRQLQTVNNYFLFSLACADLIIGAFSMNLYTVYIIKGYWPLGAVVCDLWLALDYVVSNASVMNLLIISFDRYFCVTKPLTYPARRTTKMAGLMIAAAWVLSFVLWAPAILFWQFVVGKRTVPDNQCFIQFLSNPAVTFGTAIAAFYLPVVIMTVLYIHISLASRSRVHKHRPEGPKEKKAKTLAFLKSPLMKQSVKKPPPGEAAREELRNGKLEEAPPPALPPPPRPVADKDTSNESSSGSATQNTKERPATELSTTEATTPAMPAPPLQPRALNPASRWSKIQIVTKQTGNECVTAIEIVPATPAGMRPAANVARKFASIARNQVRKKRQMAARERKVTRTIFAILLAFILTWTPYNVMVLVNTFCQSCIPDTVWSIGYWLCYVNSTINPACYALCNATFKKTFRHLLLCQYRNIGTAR
Test: mAChR M4 cell-based functional assay (calcium flux, human M4/Gqi5/CHO cells)
Conditions: antagonist mode, decrease of the response to an EC80 concentration of acetylcholine; CHO-K1 cells with Gqi5
Assignment: determine reported IC50 for the given compounds.
Give bare numbers, in nM.

(Q) Fill in reported IC50 for this entry: CCCCCCN1CC2CCN(c3ccc(-c4c(C)cnn4C)nn3)C2C1 (centres unmarked) [Compound 13]
(A) 2150

(Q) Fill in reported IC50 for this entry: Cc1cnn(C)c1-c1ccc(N2CCC3CN(CCCc4ccccc4)CC32)nn1 (centres unmarked) [Compound 7]
(A) 1430

Parameters: items (list). Returns: IC50 for each item.
1. Cc1cnn(C)c1-c1ccc(N2CCC3CN(CCC(C)c4ccccc4)CC32)nn1 (centres unmarked) [Compound 9]
2. Cc1cnn(C)c1-c1ccc(N2CCC3CN(CC4CC5C=CC4C5)CC32)nn1 (centres unmarked) [Compound 3]
3. Cc1cnn(C)c1-c1ccc(N2CCC3CN(CCC(C)(C)C)CC32)nn1 (centres unmarked) [Compound 20]
4. Cc1cnn(C)c1-c1ccc(N2CCC3CN(CCCC(C)(C)C)CC32)nn1 (centres unmarked) [Compound 2]
5. Cc1cnn(C)c1-c1ccc(N2CCC3CN(CC4C5CC6CC(C5)CC4C6)CC32)nn1 (centres unmarked) [Compound 10]
6. CCc1ccncc1-c1ccc(N2CCC3CN(CC45CC6CC(CC(C6)C4)C5)CC32)nn1 (centres unmarked) [Compound 15]

(A)
1: 498; 2: 800; 3: 2220; 4: 647; 5: 453; 6: 899
